testSystem: CDK2 CCNA2 (human) (UniProt P24941+P20248)
Sequence (P20248 whole entry, looked up, other chains not shown): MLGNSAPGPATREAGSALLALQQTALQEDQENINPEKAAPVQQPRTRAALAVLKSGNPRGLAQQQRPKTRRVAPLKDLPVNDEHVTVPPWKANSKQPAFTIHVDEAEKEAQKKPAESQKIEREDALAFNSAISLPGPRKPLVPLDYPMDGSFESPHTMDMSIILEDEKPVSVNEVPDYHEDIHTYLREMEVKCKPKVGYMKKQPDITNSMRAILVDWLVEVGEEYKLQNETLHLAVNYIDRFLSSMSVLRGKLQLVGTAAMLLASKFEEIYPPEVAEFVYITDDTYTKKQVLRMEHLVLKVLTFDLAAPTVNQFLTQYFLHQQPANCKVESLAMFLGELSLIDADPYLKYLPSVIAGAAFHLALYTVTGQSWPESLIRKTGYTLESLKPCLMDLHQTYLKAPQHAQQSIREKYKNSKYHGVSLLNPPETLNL
measurementDescription: radiometric filter-binding kinase assay, Kinase HotSpot
statedConditions: compound 0.5 µM; ATP 10 µM
# maps each entry to its residual activity

- structureNotation: "Nc1nccc(-c2c(-c3ccc(F)cc3)ncn2C2CCNCC2)n1"
  residual activity (%): 100
- structureNotation: "COc1cc(OC)c(/C=C2\\C(=O)Nc3ccccc32)c(OC)c1"
  residual activity (%): 96.3
- structureNotation: "O=C1Nc2ccccc2/C1=C1\\Nc2ccccc2\\C1=N/O"
  residual activity (%): 29.6
- structureNotation: "Cn1nc2c3c(cccc31)C(=O)c1ccccc1-2"
  residual activity (%): 105
- structureNotation: "Oc1ccc(Nc2nc(-c3ccc(Cl)cc3)cs2)cc1"
  residual activity (%): 98.6
- structureNotation: "Cc1nc2cc3nc(-c4cccs4)cnc3cc2n1C"
  residual activity (%): 104
- structureNotation: "O=C1NC(=O)C(c2c[nH]c3ccccc23)=C1c1c[nH]c2ccccc12"
  residual activity (%): 81.9
- structureNotation: "CC(C)c1nn(-c2c(Cl)cccc2Cl)c2nc(Cc3ccc(OCCO)cc3)nc(O)c12"
  residual activity (%): 1.96
- structureNotation: "CN([C@@H](Cc1ccc(OS(=O)(=O)c2cccc3cnccc23)cc1)C(=O)N1CCN(c2ccccc2)CC1)S(=O)(=O)c1cccc2cnccc12"
  residual activity (%): 99.8
- structureNotation: "CC(=O)O/N=C1\\C(=C2\\C(=O)Nc3cc(Br)ccc32)Nc2ccccc21"
  residual activity (%): 22.3
- structureNotation: "O=C1NC(=O)/C(=C\\c2ccc3nccnc3c2)S1"
  residual activity (%): 99.7
- structureNotation: "O=C(Nc1cccc(Nc2cc(Nc3cccc(C(F)(F)F)c3)ncn2)c1)C1CC1"
  residual activity (%): 99.5
- structureNotation: "O=C1c2ccccc2-[n+]2ccc3c([nH]c4ccccc43)c21"
  residual activity (%): 72.4
- structureNotation: "O=C1Cc2c([nH]c3ccc(Br)cc23)-c2ccccc2N1"
  residual activity (%): 37.4
- structureNotation: "Cn1sc(=O)n(Cc2ccccc2)c1=O"
  residual activity (%): 100
- structureNotation: "O=C(CCCc1ccc(-c2ccccc2F)cc1)Nc1ccc(O)cc1"
  residual activity (%): 92.7
- structureNotation: "O=C1NC(=O)C(c2cn(CCCO)c3ncccc23)=C1c1cnccn1"
  residual activity (%): 94.8
- structureNotation: "CCN(CC)CCCCN1c2ccccc2Oc2ccc(Cl)cc21"
  residual activity (%): 98.7

###

# maps each entry to its residual activity
testSystem: PAK3 (human) (UniProt O75914)
Sequence (O75914 whole entry, looked up): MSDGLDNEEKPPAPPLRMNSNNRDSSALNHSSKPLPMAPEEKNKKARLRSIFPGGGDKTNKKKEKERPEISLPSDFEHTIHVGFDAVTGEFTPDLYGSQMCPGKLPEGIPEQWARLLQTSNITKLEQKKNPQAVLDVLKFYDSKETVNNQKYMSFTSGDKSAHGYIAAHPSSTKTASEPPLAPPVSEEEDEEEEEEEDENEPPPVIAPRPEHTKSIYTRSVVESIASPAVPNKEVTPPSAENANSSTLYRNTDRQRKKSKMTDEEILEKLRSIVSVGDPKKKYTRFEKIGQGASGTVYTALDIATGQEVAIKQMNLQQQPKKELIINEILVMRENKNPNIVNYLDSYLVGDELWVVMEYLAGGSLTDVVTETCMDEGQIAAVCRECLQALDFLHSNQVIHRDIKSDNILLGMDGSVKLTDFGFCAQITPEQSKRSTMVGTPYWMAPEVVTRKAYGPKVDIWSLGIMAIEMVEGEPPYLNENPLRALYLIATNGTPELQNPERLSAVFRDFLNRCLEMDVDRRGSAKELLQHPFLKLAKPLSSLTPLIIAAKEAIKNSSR
measurementDescription: radiometric filter-binding kinase assay, Kinase HotSpot
statedConditions: compound 0.5 µM; ATP 10 µM
readoutLabel: residual activity (%)

- structureNotation: "CC(C)c1nn(-c2c(Cl)cccc2Cl)c2nc(Cc3ccc(OCCO)cc3)nc(O)c12"
  readoutLabel: "residual activity"
  result: 94.8
- structureNotation: "Nc1nnc2[nH]c3ccccc3nc1-2"
  readoutLabel: "residual activity"
  result: 98.3
- structureNotation: "O=C1Nc2ccccc2/C1=C1\\Nc2ccccc2\\C1=N/O"
  readoutLabel: "residual activity"
  result: 92.6
- structureNotation: "COc1ccc(OC)c2c(=S)c3ccccc3[nH]c12"
  readoutLabel: "residual activity"
  result: 98
- structureNotation: "CN(C)C[C@H]1CCn2c(c(C3=C(c4cn(C)c5ccccc45)C(=O)NC3=O)c3ccccc32)C1"
  readoutLabel: "residual activity"
  result: 102
- structureNotation: "Oc1ccc(Nc2nc(-c3ccc(Cl)cc3)cs2)cc1"
  readoutLabel: "residual activity"
  result: 124
- structureNotation: "Cc1nc2cc3nc(-c4cccs4)cnc3cc2n1C"
  readoutLabel: "residual activity"
  result: 98.8
- structureNotation: "O=C(O)/C=C/c1cc(Br)c(Br)c(Br)c1Br"
  readoutLabel: "residual activity"
  result: 100
- structureNotation: "O=C1Cc2c([nH]c3ccc(Br)cc23)-c2ccccc2N1"
  readoutLabel: "residual activity"
  result: 96.6
- structureNotation: "Cn1sc(=O)n(Cc2ccccc2)c1=O"
  readoutLabel: "residual activity"
  result: 100
- structureNotation: "CCN(CC)CCCCN1c2ccccc2Oc2ccc(Cl)cc21"
  readoutLabel: "residual activity"
  result: 116
- structureNotation: "CC(=O)O/N=C1\\C(=C2\\C(=O)Nc3cc(Br)ccc32)Nc2ccccc21"
  readoutLabel: "residual activity"
  result: 99.1

###

# maps each entry to its residual activity
testSystem: UniProt:P17612
measurementDescription: radiometric filter-binding kinase assay, Kinase HotSpot
statedConditions: compound 0.5 µM; ATP 10 µM

- molecule: "CC(C)c1nn(-c2c(Cl)cccc2Cl)c2nc(Cc3ccc(OCCO)cc3)nc(O)c12"
  residual activity: "99.8%"
- molecule: "COc1ccc(CNC(=O)Nc2ncc([N+](=O)[O-])s2)cc1"
  residual activity: "96.9%"
- molecule: "O=C(Nc1cccc(Nc2cc(Nc3cccc(C(F)(F)F)c3)ncn2)c1)C1CC1"
  residual activity: "102%"
- molecule: "COc1cc2ncc(-c3ccccc3)nc2cc1OC"
  residual activity: "99.4%"
- molecule: "Cn1sc(=O)n(Cc2ccccc2)c1=O"
  residual activity: "105%"
- molecule: "Nc1nnc2[nH]c3ccccc3nc1-2"
  residual activity: "102%"
- molecule: "COc1ccc(OC)c2c(=S)c3ccccc3[nH]c12"
  residual activity: "97.5%"
- molecule: "COc1cc2ncnc(N3CCN(C(=O)Nc4ccc(Oc5ccccc5)cc4)CC3)c2cc1OC"
  residual activity: "96%"
- molecule: "Cn1nc2c3c(cccc31)C(=O)c1ccccc1-2"
  residual activity: "104%"
- molecule: "O=C1Cc2c([nH]c3ccc(Br)cc23)-c2ccccc2N1"
  residual activity: "102%"
- molecule: "CC(=O)O/N=C1\\C(=C2\\C(=O)Nc3cc(Br)ccc32)Nc2ccccc21"
  residual activity: "109%"
- molecule: "O=C1NC(=O)C(c2c[nH]c3ccccc23)=C1c1c[nH]c2ccccc12"
  residual activity: "101%"
- molecule: "O=C1NC(=O)C(c2cn(CCCO)c3ncccc23)=C1c1cnccn1"
  residual activity: "87.7%"
- molecule: "O=C(CCCc1ccc(-c2ccccc2F)cc1)Nc1ccc(O)cc1"
  residual activity: "99.5%"
- molecule: "O=C1Nc2ccccc2/C1=C1/Nc2ccccc2/C1=N\\OCCC(O)CO (stereo unspecified)"
  residual activity: "89.1%"
- molecule: "Cn1cnc2cc3c(Nc4cccc(Br)c4)ncnc3cc21"
  residual activity: "105%"
- molecule: "CC(C)[C@H](CO)Nc1nc(Nc2cc(N)cc(Cl)c2)c2ncn(C(C)C)c2n1"
  residual activity: "101%"
- molecule: "Cc1nc2cc3nc(-c4cccs4)cnc3cc2n1C"
  residual activity: "100%"
- molecule: "Nc1nccc(-c2c(-c3ccc(F)cc3)ncn2C2CCNCC2)n1"
  residual activity: "83%"
- molecule: "O=C1NC(=O)/C(=C\\c2ccc3nccnc3c2)S1"
  residual activity: "97.2%"
- molecule: "Oc1ccc(Nc2nc(-c3ccc(Cl)cc3)cs2)cc1"
  residual activity: "105%"
- molecule: "O=C(O)/C=C/c1cc(Br)c(Br)c(Br)c1Br"
  residual activity: "98.4%"
- molecule: "CCN(CC)CCCCN1c2ccccc2Oc2ccc(Cl)cc21"
  residual activity: "98.4%"
- molecule: "CCn1cnc2c(Nc3cccc(Cl)c3)nc(N[C@@H]3CCCC[C@@H]3N)nc21"
  residual activity: "102%"
- molecule: "O=C1Nc2ccccc2/C1=C1\\Nc2ccccc2\\C1=N/O"
  residual activity: "107%"
- molecule: "CN(C)C[C@H]1CCn2c(c(C3=C(c4cn(C)c5ccccc45)C(=O)NC3=O)c3ccccc32)C1"
  residual activity: "87.2%"

###

testSystem: INSRR (human) (UniProt P14616)
Sequence (P14616 whole entry, looked up): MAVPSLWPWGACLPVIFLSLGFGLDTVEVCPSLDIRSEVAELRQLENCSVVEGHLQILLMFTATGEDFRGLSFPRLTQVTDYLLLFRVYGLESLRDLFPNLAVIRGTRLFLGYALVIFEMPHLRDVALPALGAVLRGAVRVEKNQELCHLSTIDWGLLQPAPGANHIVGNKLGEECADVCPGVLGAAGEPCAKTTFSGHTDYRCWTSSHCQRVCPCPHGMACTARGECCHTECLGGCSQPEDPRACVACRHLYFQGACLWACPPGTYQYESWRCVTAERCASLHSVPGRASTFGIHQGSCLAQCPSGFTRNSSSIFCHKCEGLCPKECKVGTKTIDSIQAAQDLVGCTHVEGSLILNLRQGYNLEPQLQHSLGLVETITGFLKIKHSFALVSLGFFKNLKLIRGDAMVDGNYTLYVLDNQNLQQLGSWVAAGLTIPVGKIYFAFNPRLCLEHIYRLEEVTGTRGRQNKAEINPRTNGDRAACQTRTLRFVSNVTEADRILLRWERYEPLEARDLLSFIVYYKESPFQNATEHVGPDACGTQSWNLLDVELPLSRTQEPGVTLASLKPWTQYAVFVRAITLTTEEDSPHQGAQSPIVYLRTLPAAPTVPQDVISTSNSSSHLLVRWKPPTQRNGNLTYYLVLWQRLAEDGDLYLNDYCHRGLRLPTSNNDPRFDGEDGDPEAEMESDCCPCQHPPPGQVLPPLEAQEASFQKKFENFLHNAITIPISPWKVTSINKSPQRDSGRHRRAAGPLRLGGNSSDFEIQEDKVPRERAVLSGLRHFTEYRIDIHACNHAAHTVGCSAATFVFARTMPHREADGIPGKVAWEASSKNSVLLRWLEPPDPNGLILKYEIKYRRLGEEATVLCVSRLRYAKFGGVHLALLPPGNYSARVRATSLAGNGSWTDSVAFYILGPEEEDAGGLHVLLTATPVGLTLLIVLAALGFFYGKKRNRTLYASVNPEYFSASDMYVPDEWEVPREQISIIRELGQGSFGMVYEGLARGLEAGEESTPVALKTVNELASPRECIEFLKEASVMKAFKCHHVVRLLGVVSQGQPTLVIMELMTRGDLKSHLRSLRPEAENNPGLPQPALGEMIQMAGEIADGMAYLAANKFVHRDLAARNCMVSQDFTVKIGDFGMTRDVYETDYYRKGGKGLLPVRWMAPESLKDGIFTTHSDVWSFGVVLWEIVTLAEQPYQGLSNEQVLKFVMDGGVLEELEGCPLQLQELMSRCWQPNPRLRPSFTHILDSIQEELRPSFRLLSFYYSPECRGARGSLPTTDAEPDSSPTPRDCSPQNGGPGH
measurementDescription: radiometric filter-binding kinase assay, Kinase HotSpot
statedConditions: compound 0.5 µM; ATP 10 µM
# maps each entry to its residual activity

- molecule: "COc1cc2ncc(-c3ccccc3)nc2cc1OC"
  residual activity (%): 99.2
- molecule: "CC(=O)O/N=C1\\C(=C2\\C(=O)Nc3cc(Br)ccc32)Nc2ccccc21"
  residual activity (%): 96.7
- molecule: "O=C(Nc1cccc(Nc2cc(Nc3cccc(C(F)(F)F)c3)ncn2)c1)C1CC1"
  residual activity (%): 101
- molecule: "O=C1NC(=O)C(c2c[nH]c3ccccc23)=C1c1c[nH]c2ccccc12"
  residual activity (%): 90.1
- molecule: "CN([C@@H](Cc1ccc(OS(=O)(=O)c2cccc3cnccc23)cc1)C(=O)N1CCN(c2ccccc2)CC1)S(=O)(=O)c1cccc2cnccc12"
  residual activity (%): 94.9
- molecule: "Cn1sc(=O)n(Cc2ccccc2)c1=O"
  residual activity (%): 99.3
- molecule: "O=C(O)/C=C/c1cc(Br)c(Br)c(Br)c1Br"
  residual activity (%): 88.2
- molecule: "Oc1ccc(Nc2nc(-c3ccc(Cl)cc3)cs2)cc1"
  residual activity (%): 98.8
- molecule: "O=C1NC(=O)/C(=C\\c2ccc3nccnc3c2)S1"
  residual activity (%): 111
- molecule: "O=C1NC(=O)C(c2cn(CCCO)c3ncccc23)=C1c1cnccn1"
  residual activity (%): 93.2
- molecule: "O=C1Nc2ccccc2/C1=C1\\Nc2ccccc2\\C1=N/O"
  residual activity (%): 35.7
- molecule: "O=C1Nc2ccccc2/C1=C1/Nc2ccccc2/C1=N\\OCCC(O)CO (stereo unspecified)"
  residual activity (%): 2.77
- molecule: "O=C(CCCc1ccc(-c2ccccc2F)cc1)Nc1ccc(O)cc1"
  residual activity (%): 92.7
- molecule: "COc1cc2ncnc(N3CCN(C(=O)Nc4ccc(Oc5ccccc5)cc4)CC3)c2cc1OC"
  residual activity (%): 96.8
- molecule: "COc1ccc(CNC(=O)Nc2ncc([N+](=O)[O-])s2)cc1"
  residual activity (%): 99.2
- molecule: "CC(C)c1nn(-c2c(Cl)cccc2Cl)c2nc(Cc3ccc(OCCO)cc3)nc(O)c12"
  residual activity (%): 94.2
- molecule: "CCN(CC)CCCCN1c2ccccc2Oc2ccc(Cl)cc21"
  residual activity (%): 102
- molecule: "COc1ccc(OC)c2c(=S)c3ccccc3[nH]c12"
  residual activity (%): 88.7
- molecule: "CCn1cnc2c(Nc3cccc(Cl)c3)nc(N[C@@H]3CCCC[C@@H]3N)nc21"
  residual activity (%): 90.7
- molecule: "Cn1nc2c3c(cccc31)C(=O)c1ccccc1-2"
  residual activity (%): 82.7
- molecule: "O=C1Cc2c([nH]c3ccc(Br)cc23)-c2ccccc2N1"
  residual activity (%): 95.8

Reference source: the kinase profiling compilation of Christmann-Franck et al. (2016)
